system: DN-IV quality control recombinant protein (produced by the company) (dengue virus)
measurementDescription: BLI, antibody on AMC sensor
reportedMetric: koff (s⁻¹)
Answers are plain numbers, in s⁻¹.

[[record]]
binder = "Mutation 1-21 (antibody, V domains shown) VH: EVQLQQPGPELVKPGASVKMSCKASGYTFTSTVIHWVRQKPGQGLEWIGYMNPYNDGIKYNEKFIGKAILTSDKSSSTAYMQLSSLTSEDSAVYYCTREGLFYVMDYWGQGTSVTVSS VL: QIVLTQSPAIMSASPGEKVTMTCSATSSLSYMHWYQQKSGTSPKRWIYDTSKLASGVPVRFSGSGSGTSYSLTISSMEAEDAATYFCQWWRSDLPTFGAGTKLELKR"
readoutnumber = 0.000269


Now for another entry.
Form field koff, entry WT 1-14 (antibody, V domains shown) VH: EVQLQQPGPELVKPGASVKMSCKASGYTVTSSVIHWVRQKPGQGLEWIGYMNAYNDGLKYNDKFIGKAILTSDKSSSTAYMQLSSLTSEDSAVYYCTREGLFYVFDYWGQGTSVTVSS VL: QIVLTQSPAIMSASPGEKVTMTCSGTSSLSYMHWYQQKSGTSPKRWIYDSSKLASPVPVRFSGSGSGTSYSLTISSMEAEDAATYFCQWWRSVLPTFGAGTKLELKR : 0.000188
